# System: 2Sp-muMax20 (muMax20 with two 2,6-bis(methyl)pyridine Cys staples)
# TEST NAME: PBM 8-mer E-score (E-score (rank enrichment, -0.5 to 0.5)); higher = stronger preferential binding
Over roughly 33,000 sequences, “E-score (rank enrichment, -0.5 to 0.5)” has its median near -0.0043; the highest 2% begin near 0.24. This excerpt belongs to a sample that is enriched for the highest values.
Could you please report measured PBM 8-mer E-score for the items listed next?
Answer using only a numeral; do not append any unit.

Problem: Please tell me the measured PBM 8-mer E-score for GCAAAGCA ; system: 2Sp-muMax20 (muMax20 with two 2,6-bis(methyl)pyridine Cys staples).
Result: 0.155

Problem: Please tell me the measured PBM 8-mer E-score for AACAAGTT ; system: 2Sp-muMax20 (muMax20 with two 2,6-bis(methyl)pyridine Cys staples).
Result: 0.0512

Problem: Please tell me the measured PBM 8-mer E-score for GAGCCGAA ; system: 2Sp-muMax20 (muMax20 with two 2,6-bis(methyl)pyridine Cys staples).
Result: -0.123

Problem: Please tell me the measured PBM 8-mer E-score for CTATACTA ; system: 2Sp-muMax20 (muMax20 with two 2,6-bis(methyl)pyridine Cys staples).
Result: 0.113

Problem: Please tell me the measured PBM 8-mer E-score for AAACAATG ; system: 2Sp-muMax20 (muMax20 with two 2,6-bis(methyl)pyridine Cys staples).
Result: 0.121

Problem: Please tell me the measured PBM 8-mer E-score for CTTCTTTA ; system: 2Sp-muMax20 (muMax20 with two 2,6-bis(methyl)pyridine Cys staples).
Result: 0.245

Problem: Please tell me the measured PBM 8-mer E-score for GTATATTA ; system: 2Sp-muMax20 (muMax20 with two 2,6-bis(methyl)pyridine Cys staples).
Result: 0.243

Problem: Please tell me the measured PBM 8-mer E-score for CGAATTGA ; system: 2Sp-muMax20 (muMax20 with two 2,6-bis(methyl)pyridine Cys staples).
Result: 0.141

Problem: Please tell me the measured PBM 8-mer E-score for AACTTACC ; system: 2Sp-muMax20 (muMax20 with two 2,6-bis(methyl)pyridine Cys staples).
Result: -0.00702

Problem: Please tell me the measured PBM 8-mer E-score for AACGTCAT ; system: 2Sp-muMax20 (muMax20 with two 2,6-bis(methyl)pyridine Cys staples).
Result: 0.0419

Problem: Please tell me the measured PBM 8-mer E-score for AGAGGACT ; system: 2Sp-muMax20 (muMax20 with two 2,6-bis(methyl)pyridine Cys staples).
Result: -0.0403

Problem: Please tell me the measured PBM 8-mer E-score for GAATAGAC ; system: 2Sp-muMax20 (muMax20 with two 2,6-bis(methyl)pyridine Cys staples).
Result: 0.104

Problem: Please tell me the measured PBM 8-mer E-score for ATATATCC ; system: 2Sp-muMax20 (muMax20 with two 2,6-bis(methyl)pyridine Cys staples).
Result: 0.285

Problem: Please tell me the measured PBM 8-mer E-score for CGCCTCCC ; system: 2Sp-muMax20 (muMax20 with two 2,6-bis(methyl)pyridine Cys staples).
Result: 0.00831

Problem: Please tell me the measured PBM 8-mer E-score for AAGAAGCT ; system: 2Sp-muMax20 (muMax20 with two 2,6-bis(methyl)pyridine Cys staples).
Result: -0.12

Problem: Please tell me the measured PBM 8-mer E-score for AAATAGAT ; system: 2Sp-muMax20 (muMax20 with two 2,6-bis(methyl)pyridine Cys staples).
Result: 0.227

Problem: Please tell me the measured PBM 8-mer E-score for ATTCGTTG ; system: 2Sp-muMax20 (muMax20 with two 2,6-bis(methyl)pyridine Cys staples).
Result: -0.0514

Problem: Please tell me the measured PBM 8-mer E-score for GGATATTA ; system: 2Sp-muMax20 (muMax20 with two 2,6-bis(methyl)pyridine Cys staples).
Result: 0.161

Problem: Please tell me the measured PBM 8-mer E-score for ATTGTAGG ; system: 2Sp-muMax20 (muMax20 with two 2,6-bis(methyl)pyridine Cys staples).
Result: 0.163

Problem: Please tell me the measured PBM 8-mer E-score for CAACCTCG ; system: 2Sp-muMax20 (muMax20 with two 2,6-bis(methyl)pyridine Cys staples).
Result: -0.194

Problem: Please tell me the measured PBM 8-mer E-score for GTGTATTA ; system: 2Sp-muMax20 (muMax20 with two 2,6-bis(methyl)pyridine Cys staples).
Result: 0.239

Problem: Please tell me the measured PBM 8-mer E-score for GCAAATAC ; system: 2Sp-muMax20 (muMax20 with two 2,6-bis(methyl)pyridine Cys staples).
Result: 0.0657

Problem: Please tell me the measured PBM 8-mer E-score for ACAACGGA ; system: 2Sp-muMax20 (muMax20 with two 2,6-bis(methyl)pyridine Cys staples).
Result: -0.0195

Problem: Please tell me the measured PBM 8-mer E-score for CGCGAGGC ; system: 2Sp-muMax20 (muMax20 with two 2,6-bis(methyl)pyridine Cys staples).
Result: -0.0315

Problem: Please tell me the measured PBM 8-mer E-score for AAATAGAC ; system: 2Sp-muMax20 (muMax20 with two 2,6-bis(methyl)pyridine Cys staples).
Result: 0.257

Problem: Please tell me the measured PBM 8-mer E-score for TAACATTA ; system: 2Sp-muMax20 (muMax20 with two 2,6-bis(methyl)pyridine Cys staples).
Result: 0.114

Problem: Please tell me the measured PBM 8-mer E-score for AATGCTGT ; system: 2Sp-muMax20 (muMax20 with two 2,6-bis(methyl)pyridine Cys staples).
Result: -0.0251

Problem: Please tell me the measured PBM 8-mer E-score for ATATACTC ; system: 2Sp-muMax20 (muMax20 with two 2,6-bis(methyl)pyridine Cys staples).
Result: 0.0166
